assay comment: xn = mol fraction of the nth substance listed, in the solute-free solvent
experimental context: 308.15 K; x2 = 0.7
quantity measured: solubility (g/100 g solution)
One number for each entry.

Recorded results for 2 compounds are shown here.
compound	quantity measured	test value
CCOc1ccccc1C(N)=O + CO + CC#N	solubility (g/100 g solution)	16.4
Cc1ncc(CO)c(CO)c1O.Cl + O + CCCO	solubility (g/100 g solution)	13.3

Turning now to a further record.
Requested field: solubility (g/100 g solution). Item: Cc1c(Br)c(=O)n(C2CCCC2)c2nc(Cl)ncc12 + CCOC(C)=O + CCO 1.15

====

Could you please report measured solubility (g/100 g solution) for the items listed next?
assay comment: xn = mol fraction of the nth substance listed, in the solute-free solvent
experimental context: 308.15 K; x2 = 0.7
One number for each entry.

molecule	solubility (g/100 g solution)
Cc1c(Br)c(=O)n(C2CCCC2)c2nc(Cl)ncc12 + C1CCOC1 + CCO	7.71

Would you be so kind as to report solubility (g/100 g solution) for each listed record?
1. CCOc1ccccc1C(N)=O + CCO + CC#N
2. Cc1c(Br)c(=O)n(C2CCCC2)c2nc(Cl)ncc12 + CC1=CC(=O)CC(C)(C)C1 + CC(C)O
3. Cc1ncc(CO)c(CO)c1O.Cl + O + CC(C)O

12.2
2.39
12

Would you be so kind as to report solubility (g/100 g solution) for each listed record?
1. Cc1ncc(CO)c(CO)c1O.Cl + O + CC#N
2. CCOc1ccccc1C(N)=O + CC#N + CC(C)O

[15.5, 10.1]
